Each recorded value in this set is attributed to patent US20240076389A1.

- Test system: T1, recombinant human AXL extracellular domain, C-terminally His8-tagged (rhAXL-ECD) (human, UniProt P30530 26-451)
- T1 construct: Made in CHO cells; also called (rh)AXL-ECD His8; human AXL ECD
- T1 sequence: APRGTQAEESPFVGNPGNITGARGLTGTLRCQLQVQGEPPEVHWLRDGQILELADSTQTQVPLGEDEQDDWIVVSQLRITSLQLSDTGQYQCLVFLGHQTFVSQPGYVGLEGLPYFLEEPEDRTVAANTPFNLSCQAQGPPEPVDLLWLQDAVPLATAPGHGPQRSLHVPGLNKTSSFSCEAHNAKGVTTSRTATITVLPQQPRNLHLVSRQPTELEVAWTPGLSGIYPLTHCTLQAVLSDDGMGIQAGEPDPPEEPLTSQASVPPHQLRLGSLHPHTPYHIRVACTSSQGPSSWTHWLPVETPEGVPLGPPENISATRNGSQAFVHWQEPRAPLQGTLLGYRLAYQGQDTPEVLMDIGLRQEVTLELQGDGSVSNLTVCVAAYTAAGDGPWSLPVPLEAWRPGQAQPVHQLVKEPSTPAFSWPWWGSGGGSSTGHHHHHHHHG
- Test description: ELISA, antigen coated at 5 µg/ml, mAb 10 µg/ml
Could you please report measured OD405 nm for the items listed next?
Answers are plain numbers, in OD405.

Binder: F107-10G1 (antibody, V domains shown, also called F107-10G1-3) VH: EVNLVESGGGVVKPGASLKLSCEASGFTFSNYGMSWVRQTSDKRLEWVASISGGGGRTYYLDNVKGRFIISRENAKNTLYLQMSSLKSEDTALFYCARGARASYFAMDYWGQGSSVTVSS VL: VIVMTQSHKFMSTSVGDRVSITCKASQDVTTAVAWYQQKPGQSPKLLIYWASTRHTGVPDRFTGSGSGTDYSLTISNVQTEDLAFYYCQQHFTTPLTFGAGTKLELK
Measure name: OD405 nm
Unit string: OD405
Val: 1.76

Then this binder:
Could you share which OD405 nm value was measured for F111-3C8 (antibody, V domains shown, also called F111-3C8-2) VH: QVQLQQPGAELGKPGTSVKLSCKASGYTFTSYWMHWVKRVPGQGLEWIGNINPNSTSADYNEKFKRKATLTVDKSSSTAYMQLSTLTSEDSAVYYCTRPLMGPYWYFDVWGTGTTVTVSS VL: QIVLTQSPAIMSASPGEKVTISCSASSSVSYMYWYQQKPGSSPKPWIYRTSNLASGVPARFSGSGSGTSYSLTISSMEAEDAATYYCQQYHNYPPTFGGGTKLEIK ?
2.3
